Cited source for all entries: paper PMC9482650

Biological target: Inadl_8, Q8NI35
Sequence (Q8NI35 1425-1530): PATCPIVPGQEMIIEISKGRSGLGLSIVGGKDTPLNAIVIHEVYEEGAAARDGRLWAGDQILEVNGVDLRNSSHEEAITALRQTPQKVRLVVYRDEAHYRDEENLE
Test: holdup assay
Design: key: below the threshold = too weak to quantify, mostly under pKd 3.1 to 4
Conditions: plain residues with an end cap or a label only (N-terminal biotin on a linker: ado-ado)
parameter: pKd

Examples with answers:
# binder, pKd
records = [
    ("RDYTQSSSSL [GRM5, P41594]", "below the threshold"),
    ("VCMGDHWFDV [PRKN, O60260]", 3.66),
    ("LVEEEEPMNL [HDAC7, Q8WUI4]", "below the threshold"),
    ("DSEEELPTRL [GRK6, P43250]", "below the threshold"),
]

Turning to the following binder.
Incoming: Need pKd, item MLPANYVEAI [NEB, P20929]
Outgoing: below the threshold
